# assay summary: Functional Dkk1-LRP5-TCF-Luciferase Assay in U2OS Cells (table columns: A=MAX FOLD Induction/DMSO CONTROL; B=fold induction @ 2.0 uM; C=fold induction @ 20.0 uM)
# Assay type: cell-based, Human
# reported conditions: Homo sapiens, U2OS; 2.0 uM compound
Reported fold induction at 2 µM is given for each of the following molecules.

{"smiles str": "CC(C)Cc1nc2c(-c3ccc4ccccc4c3)ccnc2n1C1CCNCC1", "endpoint value": 1.05}
{"smiles str": "Clc1cncc(Cl)c1-c1nc2c(-c3ccc4ccccc4c3)ccnc2n1C1CCNCC1", "endpoint value": 1.95}
{"smiles str": "Cc1ccc(-c2nc3cc(-c4ccc5ccccc5c4)cnc3n2C2CCNCC2)o1", "endpoint value": 1.23}
{"smiles str": "c1ccc2cc(-c3ccnc4c3ncn4C3CCNCC3)ccc2c1", "endpoint value": 5.4}

Next up:
For this molecule ( O=c1[nH]c2c(-c3ccc4ccccc4c3)ccnc2n1C1CCNCC1 ), measured fold induction at 2 µM is 1.29
